# Target desc: T1, cloned human somatostatin receptor 3 (human, UniProt P32745 1-418)
# T1 construct: whole, on cells; Tested as cell membrane preparations; also called SSTR-3; SSTR3
# T1 sequence (P32745 whole entry): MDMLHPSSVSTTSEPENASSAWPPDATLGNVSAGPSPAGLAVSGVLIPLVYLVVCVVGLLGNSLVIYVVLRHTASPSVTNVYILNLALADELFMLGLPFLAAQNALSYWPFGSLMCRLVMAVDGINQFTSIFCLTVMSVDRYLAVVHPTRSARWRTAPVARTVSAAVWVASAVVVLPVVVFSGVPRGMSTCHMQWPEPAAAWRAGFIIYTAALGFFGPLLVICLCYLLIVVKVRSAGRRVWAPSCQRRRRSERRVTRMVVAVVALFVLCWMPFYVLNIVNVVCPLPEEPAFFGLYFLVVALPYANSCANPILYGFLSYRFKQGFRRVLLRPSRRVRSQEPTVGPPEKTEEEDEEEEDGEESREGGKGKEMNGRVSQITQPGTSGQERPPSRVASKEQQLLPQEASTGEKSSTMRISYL
# Experiment summary: inhibition of SRIF binding, cloned human SSTR-3; head says nM, values evidently molar
*1 amine or outer side, *2 acyl side, *3 side chain or, on linkers, in order; H or OH if unused. Bridges are numbered along the chain shown (N, C = ends). Where no end group is shown, it is not given here. [ ]: non-standard residue; d: D form. N(2-aminoethyl)Phe = O=C([C@H](Cc1ccccc1)N(CCN[*:3])[*:1])[*:2]; N(CH2CH2CO)Gly = O=C(CN(CCC(=O)[*:3])[*:1])[*:2]; 2Nal = N[C@@H](Cc1ccc2ccccc2c1)C(=O)O; Gly(S2) = not defined here
Reported property: IC50 (nM)

CFW[dW]KTF[Gly(S2)]-NH2 (disulfide 1-8; reading uncertain, Backbone to side chain cyclized octapeptide) [PTR 3197] | 1
[dF]CFW[dW]KTF[Gly(S2)]-NH2 (disulfide 2-9; reading uncertain, Backbone to side chain cyclized nonapeptide) [PTR 3207] | 1
[N(2-aminoethyl)Phe]F[dW]KT[2Nal][N(CH2CH2CO)Gly] (lactam 1-7; not fully specified, Backbone cyclized heptapeptide) [PTR 3203] | 10

[a] [N(2-aminoethyl)Phe]Y[dW]KS[2Nal][N(CH2CH2CO)Gly] (lactam 1-7; not fully specified, Backbone cyclized heptapeptide) [PTR 3201]
[b] XFWWKTFG (GABA at 1 (written X); (D)Trp at 4; Gly(C3) building unit at 8 bridged by an amide to the N terminus (GABA); C-terminal amide, Backbone-to-end cyclized octapeptide) [PTR 3173]
Kindly identify the item with the lower IC50 figure among these two: a and b Your answer should be the label attached to the chosen record. a
(a: 10 nM, b: 100 nM)

These data points were gathered from patent US6930088B2.
